Where these numbers come from: paper PMC11480844

B1: H2-Kb / Ed10 (parent complex)
chain 1: GEQVEQRPPHLSVREGDSAFIICTYTDSATAYFYWYKQEPGAGLQLLMSVFSNVDRKEEQGLTVLLNKKDKRLSLNLTAAHPGDSAVYFCAVRGTGYQNFYFGKGTSLTVIP
chain 2: AQTIHQWPVAEIKAVGSPLSLGCTIKGKSSPNLYWYWQATGGTLQQLFYSITVGQVESVVQLNLSASRPKDDQFILSTEKLLLSHSGFYLCAWSPGYEQYFGPGTRLTVL
chain 3: not shown
chain 4: IQKTPQIQVYSRHPPENGKPNILNCYVTQFHPPHIEIQMLKNGKKIPKVEMSDMSFSKDWSFYILAHTEFTPTETDTYACRVKHDSMAEPKTVYWDRDM
chain 5: SIINFEKL

Variants of: B1
Experiment: % of reporter cells activated (NFAT-GFP), raw; further: test concentration or dose not given here
List of ratio to parent values.
// return just the number, without any unit appended

Look over these answered cases.
chain 5 F5K | 0.688
chain 5 S1W | 0.717
chain 5 L8W | 0.702
chain 5 I3N | 0.683

Please turn your attention to the following entry.
// sample chain 5 F5N , its ratio to parent was 0.711
